The measured values listed here are drawn from patent US20230416224A1.

The molecules listed here are annotated with their Number CE Diameter D50.
Assay: Particle size distribution of ORZY-05 by static automated imaging (Morphologi 4)
Assay type: physicochemical
Details: ORZY-05 particles
Answer with the value and then the unit.

Record excerpt, results attached:
- Molecule: "O=C(O)CC(O)(CC(=O)O)C(=O)O.[O-][n+]1cccc(/C(Cl)=N/OC[C@H](O)CN2CCCCC2)c1 [18-003, arimoclomol citrate]"
  Reported Result: "21.80 μm"
- Molecule: "O=C(O)CC(O)(CC(=O)O)C(=O)O.[O-][n+]1cccc(/C(Cl)=N/OC[C@H](O)CN2CCCCC2)c1 [compound 1001, arimoclomol citrate]"
  Reported Result: "5.28 μm"

State its Number CE Diameter D50 for this molecule: O=C(O)CC(O)(CC(=O)O)C(=O)O.[O-][n+]1cccc(/C(Cl)=N/OC[C@H](O)CN2CCCCC2)c1 [17-003, arimoclomol citrate] 2.00 μm

* * *

Assay: Particle size distribution of ORZY-05 by static automated imaging (Morphologi 4)
Type: physicochemical
Conditions: ORZY-05 particles
Given measured Volume CE Diameter D10, output yes (1) if it is greater than or equal to 10 μm and no (0) if not.

- Compound: "O=C(O)CC(O)(CC(=O)O)C(=O)O.[O-][n+]1cccc(/C(Cl)=N/OC[C@H](O)CN2CCCCC2)c1 [18-004, arimoclomol citrate]"
  Class Label: "yes (1)"
- Compound: "O=C(O)CC(O)(CC(=O)O)C(=O)O.[O-][n+]1cccc(/C(Cl)=N/OC[C@H](O)CN2CCCCC2)c1 [17-004, arimoclomol citrate]"
  Class Label: "yes (1)"
- Compound: "O=C(O)CC(O)(CC(=O)O)C(=O)O.[O-][n+]1cccc(/C(Cl)=N/OC[C@H](O)CN2CCCCC2)c1 [17-001, arimoclomol citrate]"
  Class Label: "no (0)"
- Compound: "O=C(O)CC(O)(CC(=O)O)C(=O)O.[O-][n+]1cccc(/C(Cl)=N/OC[C@H](O)CN2CCCCC2)c1 [compound 1002, arimoclomol citrate]"
  Class Label: "yes (1)"

Given the entry O=C(O)CC(O)(CC(=O)O)C(=O)O.[O-][n+]1cccc(/C(Cl)=N/OC[C@H](O)CN2CCCCC2)c1 [17-003, arimoclomol citrate] , answer whether its Volume CE Diameter D10 meets or surpasses 10 μm. no (0)

Quick check, Volume CE Diameter D10 >= 10 μm? O=C(O)CC(O)(CC(=O)O)C(=O)O.[O-][n+]1cccc(/C(Cl)=N/OC[C@H](O)CN2CCCCC2)c1 [compound 1004, arimoclomol citrate] yes (1)

* * *

Below, each entry is listed alongside its reported Volume CE diameter D[4,3].
Assay: Particle size distribution of ORZY-05 by static automated imaging (Morphologi 4)
Format: physicochemical
Conditions: ORZY-05 particles
// return numeric value only (unit: μm, not printed)

Check out these entries, answers already filled in.
- Compound: "O=C(O)CC(O)(CC(=O)O)C(=O)O.[O-][n+]1cccc(/C(Cl)=N/OC[C@H](O)CN2CCCCC2)c1 [compound 1003, arimoclomol citrate]"
  Volume CE diameter D[4,3] [μm]: 22.10
- Compound: "O=C(O)CC(O)(CC(=O)O)C(=O)O.[O-][n+]1cccc(/C(Cl)=N/OC[C@H](O)CN2CCCCC2)c1 [compound 1001, arimoclomol citrate]"
  Volume CE diameter D[4,3] [μm]: 29.46
- Compound: "O=C(O)CC(O)(CC(=O)O)C(=O)O.[O-][n+]1cccc(/C(Cl)=N/OC[C@H](O)CN2CCCCC2)c1 [18-002, arimoclomol citrate]"
  Volume CE diameter D[4,3] [μm]: 23.30
- Compound: "O=C(O)CC(O)(CC(=O)O)C(=O)O.[O-][n+]1cccc(/C(Cl)=N/OC[C@H](O)CN2CCCCC2)c1 [18-003, arimoclomol citrate]"
  Volume CE diameter D[4,3] [μm]: 41.10
- Compound: "O=C(O)CC(O)(CC(=O)O)C(=O)O.[O-][n+]1cccc(/C(Cl)=N/OC[C@H](O)CN2CCCCC2)c1 [17-004, arimoclomol citrate]"
  Volume CE diameter D[4,3] [μm]: 38.80

Output measured Volume CE diameter D[4,3] for this item: O=C(O)CC(O)(CC(=O)O)C(=O)O.[O-][n+]1cccc(/C(Cl)=N/OC[C@H](O)CN2CCCCC2)c1 [17-001, arimoclomol citrate] 25.70

Report measured Volume CE diameter D[4,3]; entry is O=C(O)CC(O)(CC(=O)O)C(=O)O.[O-][n+]1cccc(/C(Cl)=N/OC[C@H](O)CN2CCCCC2)c1 [18-001, arimoclomol citrate] 25.40

Give reported Volume CE diameter D[4,3] value for O=C(O)CC(O)(CC(=O)O)C(=O)O.[O-][n+]1cccc(/C(Cl)=N/OC[C@H](O)CN2CCCCC2)c1 [17-002, arimoclomol citrate] 17.10

Identify measured Volume CE diameter D[4,3] corresponding to O=C(O)CC(O)(CC(=O)O)C(=O)O.[O-][n+]1cccc(/C(Cl)=N/OC[C@H](O)CN2CCCCC2)c1 [compound 1002, arimoclomol citrate] 39.38

Give the value of Volume CE diameter D[4,3] reported for the following: O=C(O)CC(O)(CC(=O)O)C(=O)O.[O-][n+]1cccc(/C(Cl)=N/OC[C@H](O)CN2CCCCC2)c1 [compound 1004, arimoclomol citrate] 27.06

Provide Volume CE diameter D[4,3] value for the following compound: O=C(O)CC(O)(CC(=O)O)C(=O)O.[O-][n+]1cccc(/C(Cl)=N/OC[C@H](O)CN2CCCCC2)c1 [17-003, arimoclomol citrate] 13.70

Input O=C(O)CC(O)(CC(=O)O)C(=O)O.[O-][n+]1cccc(/C(Cl)=N/OC[C@H](O)CN2CCCCC2)c1 [18-004, arimoclomol citrate] , output reported Volume CE diameter D[4,3]. 45.90
